- Test system: Trypanosoma cruzi
- procedure.text: Trypanosoma cruzi phosphomannomutase and mannose-1-phosphate guanylyltransferase assay
- Assay type: functional
- Parameters: scale not given: direction of the effect not stated beside the values
- experimental.conditions: 10 µM
readout.type: Percent Effect (%)

                              record_smiles    readout_type  measured
0  CCNC(=O)[C@@H]1C[C@@H](NC(=O)c2cccnc2O)CN1Cc1ccsc1  Percent Effect      3.59
1    O=C(c1ccnnc1)N1CCC2(CC1)CC(N1CCOCC1)C2  Percent Effect     -2.25
2  Cc1ccc(-c2nc(CCNC(=O)NC3CCN(C)CC3)co2)cc1  Percent Effect      1.81
3              CC(C)Oc1ncccc1CNC(=O)c1ccco1  Percent Effect     0.402
4          FC(F)(F)c1nc(NC2CCCC2)c2ccccc2n1  Percent Effect    -0.291
5    Cc1noc(C2CCN(C(=O)CCNS(C)(=O)=O)CC2)n1  Percent Effect      3.47
